System: MCF7 breast cancer cell lines
procedure-summary: Cell viability analysis, WST-8 assay, MCF7
conditions-used: Homo sapiens, MCF7, 72 h, read-out: Cell viability (%) WST-8, MCF7, footnote a: concentration 1.25 µM, 72 hours
Counter-ions that a name gives are not always drawn.

- molecule: "NS(=O)(=O)c1ccc(Nc2nc(Nc3cc(C4CC4)[nH]n3)c3ccccc3n2)cc1"
  viability at 1.25 µM, %: 85.3
- molecule: "CN1CCN(c2nc(Nc3cc(C4CC4)[nH]n3)c3ccccc3n2)CC1 [compound 12a]"
  viability at 1.25 µM, %: 26.2
- molecule: "O=C(Nc1ccc(F)cc1)N1CCN(c2nc(Nc3cc(C4CC4)[nH]n3)c3ccccc3n2)CC1 [compound 12d]"
  viability at 1.25 µM, %: 55.8
- molecule: "CN(C)S(=O)(=O)c1ccc(Nc2nc(Nc3cc(C4CC4)[nH]n3)c3ccccc3n2)cc1"
  viability at 1.25 µM, %: 22.8
- molecule: "OCCNc1nc(Nc2cc(C3CC3)[nH]n2)c2ccccc2n1 [compound 4cf, hydrochloride]"
  viability at 1.25 µM, %: 87
- molecule: "CNc1nc(Nc2cc(C3CC3)[nH]n2)c2ccccc2n1"
  viability at 1.25 µM, %: 87.5
- molecule: "CCNC(=O)N1CC2CC1CN2c1nc(Nc2cc(C3CC3)[nH]n2)c2ccccc2n1 (stereo not shown) [compound 15a]"
  viability at 1.25 µM, %: 61
- molecule: "c1ccc2c(Nc3cc(C4CC4)[nH]n3)nc(Nc3ccc(Cc4nnn[nH]4)cc3)nc2c1"
  viability at 1.25 µM, %: 112
- molecule: "N#Cc1ccc(Nc2nc(Nc3cc(C4CC4)[nH]n3)c3ccccc3n2)cc1"
  viability at 1.25 µM, %: 5.6
- molecule: "c1ccc(CNc2nc(Nc3cc(C4CC4)[nH]n3)c3ccccc3n2)cc1"
  viability at 1.25 µM, %: 65.5
